Would you kindly list EC50 for each of these compounds?
biological target: Peroxisome proliferator-activated receptor gamma (Homo sapiens, UniProt P37231); test: Agonist activity at human Gal4 fused PPARgamma LBD expressed in COS-7 cells incubated for 24 hrs by firefly luciferase reporter gene assay
Sequence (P37231 whole entry, the tested form may be a part): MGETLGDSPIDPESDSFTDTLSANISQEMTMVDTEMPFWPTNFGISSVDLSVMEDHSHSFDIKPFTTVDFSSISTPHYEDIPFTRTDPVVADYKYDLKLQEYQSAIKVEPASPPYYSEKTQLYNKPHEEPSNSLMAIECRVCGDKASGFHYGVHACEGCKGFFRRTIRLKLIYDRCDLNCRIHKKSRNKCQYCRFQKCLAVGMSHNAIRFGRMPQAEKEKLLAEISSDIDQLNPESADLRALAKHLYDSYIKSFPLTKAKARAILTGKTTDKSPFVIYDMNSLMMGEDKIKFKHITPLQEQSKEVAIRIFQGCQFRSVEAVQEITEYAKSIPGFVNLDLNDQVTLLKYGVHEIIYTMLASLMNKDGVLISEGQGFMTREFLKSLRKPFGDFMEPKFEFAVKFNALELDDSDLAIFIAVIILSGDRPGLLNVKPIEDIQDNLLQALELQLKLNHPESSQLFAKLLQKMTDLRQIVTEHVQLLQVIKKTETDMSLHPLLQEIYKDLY

Tell me reported EC50 for "COc1ccc(/C=C2\Oc3cc(OCc4cc(C)c(OC(C)(C)C(=O)O)c(C)c4)ccc3C2=O)cc1" , tested with Peroxisome proliferator-activated receptor gamma (Homo sapiens, UniProt P37231).
> 10 µM

Notebook entry, Peroxisome proliferator-activated receptor gamma (Homo sapiens, UniProt P37231) assay: EC50 of "Cc1cc(COc2ccc3c(c2)O/C(=C\c2ccccc2C(F)(F)F)C3=O)cc(C)c1OC(C)(C)C(=O)O" = ?
> 10 µM

State its EC50 on Peroxisome proliferator-activated receptor gamma (Homo sapiens, UniProt P37231): "Cc1cc(COc2ccc3c(c2)O/C(=C\c2ccc(F)cc2)C3=O)cc(C)c1OC(C)(C)C(=O)O"
> 10 µM

Test system Peroxisome proliferator-activated receptor gamma (Homo sapiens, UniProt P37231); read-out EC50; what value for "Cc1cc(COc2ccc3c(c2)O/C(=C\c2ccc(C(C)C)cc2)C3=O)cc(C)c1OC(C)(C)C(=O)O" ?
> 10 µM

Could you share what EC50 was measured for "CCOc1ccc(/C=C2\Oc3cc(OCc4cc(C)c(OC(C)(C)C(=O)O)c(C)c4)ccc3C2=O)cc1" , tested on Peroxisome proliferator-activated receptor gamma (Homo sapiens, UniProt P37231)?
> 10 µM

Notebook: pull reported EC50 for Peroxisome proliferator-activated receptor gamma (Homo sapiens, UniProt P37231), entry "Cc1ccc(/C=C2\Oc3cc(OCc4cc(C)c(OC(C)(C)C(=O)O)c(C)c4)ccc3C2=O)cc1"
> 10 µM

Can you look up EC50 on Peroxisome proliferator-activated receptor gamma (Homo sapiens, UniProt P37231) for "Cc1cc(COc2ccc3c(c2)O/C(=C\c2ccc(Cl)cc2)C3=O)cc(C)c1OC(C)(C)C(=O)O" ?
> 10 µM

Requested read-out EC50, target or system Peroxisome proliferator-activated receptor gamma (Homo sapiens, UniProt P37231), entry "Cc1cc(COc2ccc3c(c2)O/C(=C\c2ccc4ccccc4c2)C3=O)cc(C)c1OC(C)(C)C(=O)O"
> 10 µM

EC50 of "Cc1cc(COc2ccc3c(c2)O/C(=C\c2ccc(Br)cc2)C3=O)cc(C)c1OC(C)(C)C(=O)O" on Peroxisome proliferator-activated receptor gamma (Homo sapiens, UniProt P37231)?
> 10 µM

Checklist item: EC50 tested on Peroxisome proliferator-activated receptor gamma (Homo sapiens, UniProt P37231), entry "Cc1cc(COc2ccc3c(c2)O/C(=C\c2ccc(C#N)cc2)C3=O)cc(C)c1OC(C)(C)C(=O)O" , value?
> 10 µM

Could you share what EC50 was measured for CSc1ccc(C(=O)/C=C/c2cc(C)c(OC(C)(C)C(=O)O)c(C)c2)cc1 [ELAFIBRANOR] , tested on Peroxisome proliferator-activated receptor gamma (Homo sapiens, UniProt P37231)?
2.79 µM

Value wanted: EC50 (Peroxisome proliferator-activated receptor gamma (Homo sapiens, UniProt P37231)) of entry "Cc1cc(COc2ccc3c(c2)O/C(=C\c2ccccc2)C3=O)cc(C)c1OC(C)(C)C(=O)O"
> 10 µM

----------
molecular target: Peroxisome proliferator-activated receptor delta (Homo sapiens); experiment: Agonist activity at human Gal4 fused PPARdelta LBD expressed in COS-7 cells incubated for 24 hrs by firefly luciferase reporter gene assay
Sequence (Q03181 whole entry, the tested form may be a part): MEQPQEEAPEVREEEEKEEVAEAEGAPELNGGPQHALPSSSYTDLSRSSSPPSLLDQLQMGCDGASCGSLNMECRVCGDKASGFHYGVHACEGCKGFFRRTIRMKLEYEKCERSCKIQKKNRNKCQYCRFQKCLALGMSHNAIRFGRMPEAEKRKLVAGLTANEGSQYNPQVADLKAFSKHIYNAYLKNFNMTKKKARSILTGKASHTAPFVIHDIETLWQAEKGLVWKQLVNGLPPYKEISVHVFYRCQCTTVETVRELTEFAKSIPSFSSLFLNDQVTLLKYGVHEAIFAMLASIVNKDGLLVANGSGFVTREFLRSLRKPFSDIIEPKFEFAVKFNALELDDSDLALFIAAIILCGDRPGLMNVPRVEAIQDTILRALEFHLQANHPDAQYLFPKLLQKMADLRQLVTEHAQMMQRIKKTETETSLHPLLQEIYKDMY
measured-property: EC50

Any idea what EC50 came out for "Cc1cc(COc2ccc3c(c2)O/C(=C\c2ccc(F)cc2)C3=O)cc(C)c1OC(C)(C)C(=O)O" on Peroxisome proliferator-activated receptor delta (Homo sapiens)?
> 10 µM
